# Procedure Text: Confirmation Concentration-Response Assay for lipid storage modulators: for probe SAR round 2
# Measurement Setup: Drosophila S3 cells, BODIPY lipid droplet fluorescence, 18-24 h; series mostly up to 46.1 µM
Records with an inconclusive call do not appear. Activity calls are given as the source filed them. The call rests on the fitted dose curve; in most records, active means well fitted inhibition curve with a large enough effect; inconclusive means small, poorly fitted or top-dose-only effect, or another doubt; inactive means flat fitted curve, though single readings scatter.
Readout Name: Potency

Request: Can you share its Potency? I mean this compound: `CCNC(=O)C1CCN(C(=O)C(C)(C)NC(=O)Nc2ccccc2Cl)CC1`
Response: 14.1 µM (active)

Request: Now the same for `CCOC(=O)C1CCN(C(=O)C(C)(C)NC(=O)Nc2ccc3ccccc3c2)CC1`
Response: 4.99 µM (active)

Request: Can you handle `CCOC(=O)C1CCN(C(=O)C(C)(C)NC(=O)Nc2ccc(C(F)(F)F)cc2Cl)CC1` next?
Response: 0.141 µM (active)

Request: Thanks! And O=C(NC1CCCc2c1cnn2-c1cccc(O)c1)c1ccccn1 (stereo unspecified) ?
Response: 0.005 µM (active)

Request: Quick one: COc1ccc(-n2ncc3c2CCCC3NC(=O)c2ccccn2)cc1 (stereo unspecified)
Response: 0.0016 µM (active)

Request: Same for O=C(NC1CCCc2c1cnn2-c1ccc(F)cc1F)c1cccs1 (stereo unspecified)
Response: 0.0063 µM (active)

Request: Input `CCOC(=O)C1CCN(C(=O)C(C)(C)NC(=O)Nc2ccc(-c3ccccc3)cc2)CC1`
Response: 1.41 µM (active)

Request: // same read-out, input: CC(C)(C)OC(=O)NCCOCCOCCOc1ccc(-n2ncc3c2CCCC3NC(=O)c2ccccn2)cc1 (stereo unspecified)
Response: 0.0018 µM (active)

Request: Another compound to check: CC(C)(C)OC(=O)NCCOCCOCCOCCn1ncc2c1CCCC2NC(=O)c1ccccn1 (stereo unspecified)
Response: 0.158 µM (active)

Request: Try this compound next: `CCOC(=O)C1CCN(C(=O)C(C)(C)NC(=O)Nc2ccccc2Cl)CC1`
Response: 0.705 µM (active)

Request: Also check O=C(NC1CCCc2c1cnn2-c1ccc(F)cc1F)c1ccccc1 (stereo unspecified)
Response: 0.025 µM (active)
